Attribution: ChEMBL document CHEMBL1201862

# systemName: Nonstructural protein 1 (Influenza A virus)
# Sequence (Q194T2 whole entry): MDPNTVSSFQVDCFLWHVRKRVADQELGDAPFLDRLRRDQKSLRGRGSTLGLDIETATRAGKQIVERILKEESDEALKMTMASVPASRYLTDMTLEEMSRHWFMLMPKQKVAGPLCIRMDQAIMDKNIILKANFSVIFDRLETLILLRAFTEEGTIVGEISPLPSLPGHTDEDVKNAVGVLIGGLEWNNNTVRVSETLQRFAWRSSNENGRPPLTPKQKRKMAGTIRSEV
# Format: functional, Influenza A virus (A/California/07/2009(H1N1))
Calls of active or inactive are those of the source.
Would you kindly list IC50 for each of these compounds?

Consider the compound COc1ccc(O)c(/C=N/NC(=S)Nc2cccnc2)c1 and give its measured IC50.
3.04 µM (active)

Input Cc1ccc(S(=O)(=O)/N=C2\C=C(Nc3cccc(C(=O)O)c3)C(=O)c3ccccc32)cc1
19.9 µM (active)

Input C/C(=N\Nc1ncc(Cl)cc1Cl)c1ccccn1
12 µM (active)

Input CC1(C)OC(c2ccccc2)=C/C(=C/C=C2C(=O)c3ccccc3C2=O)O1
6.6 µM (active)

Input COc1cccc(/C=N/Nc2nccnc2Cl)c1O
7.59 µM (active)

Input O=C1C(NS(=O)(=O)c2ccc(Br)cc2)=C(N2CCCCC2)C(=O)c2ccccc21
14.5 µM (active)

----------
# systemName: Corticotropin-releasing factor receptor 2/Corticotropin-releasing factor-binding protein (Homo sapiens, UniProt P24387+Q13324)
# Sequence (Q13324 whole entry): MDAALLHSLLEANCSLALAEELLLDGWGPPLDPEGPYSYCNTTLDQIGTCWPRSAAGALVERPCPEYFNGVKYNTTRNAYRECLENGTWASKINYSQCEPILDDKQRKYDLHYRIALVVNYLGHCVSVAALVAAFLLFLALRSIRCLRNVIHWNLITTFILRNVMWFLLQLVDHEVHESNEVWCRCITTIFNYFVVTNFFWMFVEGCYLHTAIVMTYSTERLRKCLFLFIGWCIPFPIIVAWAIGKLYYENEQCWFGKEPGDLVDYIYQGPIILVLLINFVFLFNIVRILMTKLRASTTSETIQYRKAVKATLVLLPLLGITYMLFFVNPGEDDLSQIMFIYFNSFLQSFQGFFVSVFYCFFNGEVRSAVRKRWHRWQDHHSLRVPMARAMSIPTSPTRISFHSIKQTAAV
# Sequence (P24387 whole entry): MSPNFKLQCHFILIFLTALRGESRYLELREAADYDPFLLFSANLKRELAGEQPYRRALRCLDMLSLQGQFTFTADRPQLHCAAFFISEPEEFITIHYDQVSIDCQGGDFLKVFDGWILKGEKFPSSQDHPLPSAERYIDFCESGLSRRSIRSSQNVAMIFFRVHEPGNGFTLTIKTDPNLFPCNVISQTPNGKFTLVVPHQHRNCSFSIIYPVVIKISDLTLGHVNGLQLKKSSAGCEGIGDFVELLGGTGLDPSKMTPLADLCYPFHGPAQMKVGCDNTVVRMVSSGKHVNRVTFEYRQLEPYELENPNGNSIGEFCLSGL
# procedureDetails: activators of CRF receptor 2 with binding protein – uHTS hits, confirmation (AID 602473)
# Assay type: functional
# experimentalContext: read-out: EC50_Mean
The source made the active and inactive calls.
valueKind: EC50

Consider the compound CN(c1ccccc1)S(=O)(=O)c1cccc(NC(=O)COc2cccc([N+](=O)[O-])c2)c1 and give its measured EC50.
> 53 µM (inactive)

Input COc1ccc(NC(=O)c2nc3nccc(C)n3n2)cc1S(=O)(=O)N1CCOCC1
> 53 µM (inactive)

Input N#Cc1c(N)n(-c2cccc(C(=O)O)c2)c2nc3ccccc3nc12
13.7 µM (active)

Input CC(=O)Nc1ccc(NC(=O)COc2ccc([N+](=O)[O-])cc2)cc1
> 53 µM (inactive)

Input COc1ccccc1N1CCN(c2ncc(C(=O)N3CCN(c4cccc(Cl)c4)CC3)c3ccccc23)CC1
> 53 µM (inactive)

Input CCOc1ccccc1N1CCN(C(=O)Cc2ccc(S(=O)(=O)N3CCOCC3)s2)CC1
> 53 µM (inactive)

Input CCOP(=O)(OCC)C(Nc1cccc([N+](=O)[O-])c1)c1ccccc1 (stereo not given)
> 53 µM (inactive)

Input CO/N=C/C(C#N)c1ncc(C(F)(F)F)cc1Cl (stereo not given)
5.81 µM (active)

Input CC1CN(S(=O)(=O)c2ccc(C(=O)N3CCc4ccccc43)cc2)CC(C)O1 (stereo not given)
> 53 µM (inactive)

Input CC(NC(=O)COC(=O)c1ccc2c(=O)n3c(nc2c1)CCCCC3)c1ccccc1 (stereo not given)
> 53 µM (inactive)

----------
Would you kindly list IC50 for each of these compounds?
# systemName: Induced myeloid leukemia cell differentiation protein Mcl-1 (Homo sapiens)
# Sequence (Q07820 whole entry): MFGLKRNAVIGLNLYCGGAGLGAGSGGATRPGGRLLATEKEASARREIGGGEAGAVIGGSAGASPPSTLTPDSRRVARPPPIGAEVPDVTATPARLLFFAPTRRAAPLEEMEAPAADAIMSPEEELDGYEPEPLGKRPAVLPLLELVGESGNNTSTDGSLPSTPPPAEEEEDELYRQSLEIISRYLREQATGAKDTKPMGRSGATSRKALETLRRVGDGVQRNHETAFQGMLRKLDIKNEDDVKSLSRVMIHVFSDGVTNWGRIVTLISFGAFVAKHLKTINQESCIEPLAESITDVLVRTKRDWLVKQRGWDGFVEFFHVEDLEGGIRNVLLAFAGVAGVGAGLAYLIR
# Format: functional
The source made the active and inactive calls.

Consider the compound COc1cc(/C=N\Nc2nc(-c3cccs3)c(NC(C)=O)s2)ccc1O and give its measured IC50.
2.72 µM (active)

Input Cc1cccc(NC(=O)CSc2nnc(-c3ccco3)c(-c3ccco3)n2)c1
5.78 µM (active)

Input Cc1cccc(NC2=NC(=O)/C(=C/C=C/c3ccco3)S2)c1
11.4 µM (active)

Input COc1cc(/C=C2\SC(=O)N(c3ccc(Cl)cc3)C2=O)cc([N+](=O)[O-])c1O
3.07 µM (active)

Input O=C(Nc1ccc2c(c1)nc1n2CCN(C2CCCCC2)C1)c1ccco1
6.52 µM (active)

----------
# systemName: Short transient receptor potential channel 4 (Mus musculus, UniProt Q9QUQ5)
# Sequence (Q9QUQ5 whole entry): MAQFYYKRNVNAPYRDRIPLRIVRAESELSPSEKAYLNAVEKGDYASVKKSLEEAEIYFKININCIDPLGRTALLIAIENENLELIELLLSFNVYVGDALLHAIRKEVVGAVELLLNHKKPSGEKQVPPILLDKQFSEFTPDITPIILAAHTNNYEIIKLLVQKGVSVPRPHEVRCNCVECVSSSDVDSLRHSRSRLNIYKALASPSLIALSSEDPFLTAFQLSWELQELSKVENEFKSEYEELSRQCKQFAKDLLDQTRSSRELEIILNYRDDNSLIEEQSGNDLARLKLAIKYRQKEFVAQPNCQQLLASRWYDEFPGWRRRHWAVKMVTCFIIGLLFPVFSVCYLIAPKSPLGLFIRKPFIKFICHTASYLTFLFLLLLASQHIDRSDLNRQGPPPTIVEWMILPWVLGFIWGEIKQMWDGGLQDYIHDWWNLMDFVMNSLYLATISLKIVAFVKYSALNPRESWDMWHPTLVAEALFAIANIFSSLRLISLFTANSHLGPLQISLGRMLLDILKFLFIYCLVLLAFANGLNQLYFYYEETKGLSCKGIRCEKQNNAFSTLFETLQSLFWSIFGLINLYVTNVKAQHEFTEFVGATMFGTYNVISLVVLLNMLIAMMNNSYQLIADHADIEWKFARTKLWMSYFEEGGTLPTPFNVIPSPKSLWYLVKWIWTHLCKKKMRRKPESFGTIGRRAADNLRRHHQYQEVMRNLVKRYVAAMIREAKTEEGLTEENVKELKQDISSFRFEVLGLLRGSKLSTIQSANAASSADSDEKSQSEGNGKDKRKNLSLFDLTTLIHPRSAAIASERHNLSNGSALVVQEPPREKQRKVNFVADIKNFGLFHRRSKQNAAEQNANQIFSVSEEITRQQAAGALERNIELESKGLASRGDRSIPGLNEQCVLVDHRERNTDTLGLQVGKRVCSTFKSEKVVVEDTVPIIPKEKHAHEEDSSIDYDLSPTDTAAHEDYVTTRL
# procedureDetails: calcium entry via TRPC4 opening agents – cell-based, HEK293 TRPC4/mu-opioid, Fluo-4 calcium, dose response (AID 434937)
# Assay type: functional
Activity calls are given as the source filed them.
Would you kindly list EC50 for each of these molecules?

Consider the molecule CC[C@@H](C(=O)[C@@H](C)[C@@H](O)[C@H](C)CCc1ccc(C)c(O)c1C(=O)O)[C@H]1O[C@](CC)([C@H]2CC[C@](O)(CC)[C@H](C)O2)C[C@@H]1C [LASALOCID A SODIUM] and give its measured EC50.
5.96 µM (active)

Input COc1cccc(CN2CCNC(=O)C2CC(=O)N(C)CCc2ccccn2)c1 (stereo unspecified)
4.73 µM (active)

Input OCCNCCSc1ccc(Cl)cc1
1.5 µM (active)

Input COc1ccc(C(=O)NNC(=S)NC(=O)c2cccs2)cc1
10.6 µM (active)

Input CC[C@@H](C)[C@H](CNC)NC[C@@H](Cc1cccc2ccccc12)NCCc1cccc(C(F)(F)F)c1
9.44 µM (active)

Input O=C(CCCN1CCC2(CC1)C(=O)NCN2c1ccccc1)c1ccc(F)cc1 [SPIPERONE]
6.68 µM (active)

----------
# systemName: Cysteine protease ATG4B (Homo sapiens)
# Sequence (Q9Y4P1 whole entry): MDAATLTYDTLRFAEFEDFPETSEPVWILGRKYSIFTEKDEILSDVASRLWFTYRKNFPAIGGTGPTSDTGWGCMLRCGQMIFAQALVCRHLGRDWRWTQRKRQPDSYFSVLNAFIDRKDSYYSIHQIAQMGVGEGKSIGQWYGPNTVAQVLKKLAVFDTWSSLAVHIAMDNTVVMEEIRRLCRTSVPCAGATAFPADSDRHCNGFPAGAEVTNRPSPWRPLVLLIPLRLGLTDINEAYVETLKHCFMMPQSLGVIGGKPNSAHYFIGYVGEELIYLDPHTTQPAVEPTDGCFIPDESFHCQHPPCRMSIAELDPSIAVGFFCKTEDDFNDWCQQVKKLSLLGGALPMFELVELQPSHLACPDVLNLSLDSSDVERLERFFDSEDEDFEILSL
# Type: functional
Activity calls are given as the source filed them.
Would you kindly list IC50 for each of these molecules?

// map Cc1ccc(-c2nnc(SCc3ccccc3F)o2)cc1 to recorded IC50 (system: Cysteine protease ATG4B (Homo sapiens));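 further: Fluorescence-based dose-response confirmation assay measuring inhibition of ATG4B activity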
14.5 µM (active)

Input C=CC#CC[N+]1(CC#Cc2ccccc2)CCOCC1
5.56 µM (active)

Input Cc1ccccc1NC(=O)CN1C(=O)S/C(=C\c2ccc(-c3cc(C(=O)O)ccc3C)o2)C1=O
2.05 µM (active)

Input O=c1oc(-c2ccccc2)nc2sc3c(c12)CCC3
5.65 µM (active)

----------
# systemName: Short transient receptor potential channel 4 (Mus musculus)
# procedureDetails: block of DAMGO-driven TRPC4 calcium entry – cell-based, HEK293 TRPC4/mu-opioid, Fluo-4 calcium, dose response (AID 434942);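 further: potency of inhibitors blocking the TRPC4 calcium response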
# Type: functional
Active and inactive are the calls of the source.
Would you kindly list EC50 for each of these compounds?

Consider the compound CCC(C)[C@H](Nc1nc(-c2ccccc2)nc2c1oc1ccccc12)C(=O)O (some centres undefined) and give its measured EC50.
7.5 µM (active)

Input Nc1cc(C(F)(F)F)ccc1Nc1ccccc1
4.22 µM (active)

Input CN=C(S)N1CCN(C(c2ccccc2)c2ccccc2)CC1
8.41 µM (active)

Input CCn1c(NCc2c[nH]c3ccccc23)nc2ccccc21
3.35 µM (active)

Input COc1ccc(/C=C/C(=O)Oc2cc(O)cc(O)c2)cc1
3.76 µM (active)

Input Clc1ccccc1CSc1nc2cc[nH]cc-2n1
2.99 µM (active)

Input Oc1ccc(-c2csc(-c3ccccc3)n2)cc1O
4.73 µM (active)

Input Cc1cccc(C(=O)Nc2sc(-c3ccccc3)cc2C(=O)O)c1
2.11 µM (active)

Input COc1ccc(CN2CCN(Cc3ccccc3F)CC2)c(OC)c1
4.22 µM (active)

----------
# systemName: DNA repair protein RAD52 homolog (Homo sapiens, UniProt P43351)
# Sequence (P43351 whole entry): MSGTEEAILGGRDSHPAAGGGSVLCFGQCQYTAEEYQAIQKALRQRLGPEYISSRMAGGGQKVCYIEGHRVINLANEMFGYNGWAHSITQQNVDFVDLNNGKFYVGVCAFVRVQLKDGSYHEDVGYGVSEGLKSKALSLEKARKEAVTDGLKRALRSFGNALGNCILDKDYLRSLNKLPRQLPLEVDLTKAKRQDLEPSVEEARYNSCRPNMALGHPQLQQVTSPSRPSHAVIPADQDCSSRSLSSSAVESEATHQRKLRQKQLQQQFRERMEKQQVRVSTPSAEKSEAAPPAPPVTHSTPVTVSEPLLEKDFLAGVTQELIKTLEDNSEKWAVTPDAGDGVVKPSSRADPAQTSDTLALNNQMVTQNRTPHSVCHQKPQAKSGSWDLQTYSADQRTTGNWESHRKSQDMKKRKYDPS
# Type: functional, biochemical
Active and inactive are the calls of the source.
valueKind: AC50

Consider the compound COc1cc(-c2cnc3c(NC=O)cc(-c4cccc(C(=O)NCCN(C)C)c4)cn23)cc(OC)c1OC and give its measured AC50.
3.07 µM (active)

Input COc1ccc(CCNC(=O)c2cc3c(=O)n4ccccc4nc3n(CCCN3CCOCC3)c2=N)cc1OC
11.5 µM (active)

Input ClCCN1CCN(c2ccnc3cc(Cl)ccc23)CC1
17.2 µM (active)

Input CN(C)CCCN(C(=O)c1ccco1)c1nc(-c2ccc(Cl)cc2)cs1
17.3 µM (active)

Input COc1cc(Nc2c3ccccc3nc3ccccc23)cc(OC)c1OC
5.17 µM (active)

----------
# systemName: Leucine aminopeptidase (Plasmodium falciparum 3D7, UniProt Q8IL11)
# Sequence (Q8IL11 whole entry): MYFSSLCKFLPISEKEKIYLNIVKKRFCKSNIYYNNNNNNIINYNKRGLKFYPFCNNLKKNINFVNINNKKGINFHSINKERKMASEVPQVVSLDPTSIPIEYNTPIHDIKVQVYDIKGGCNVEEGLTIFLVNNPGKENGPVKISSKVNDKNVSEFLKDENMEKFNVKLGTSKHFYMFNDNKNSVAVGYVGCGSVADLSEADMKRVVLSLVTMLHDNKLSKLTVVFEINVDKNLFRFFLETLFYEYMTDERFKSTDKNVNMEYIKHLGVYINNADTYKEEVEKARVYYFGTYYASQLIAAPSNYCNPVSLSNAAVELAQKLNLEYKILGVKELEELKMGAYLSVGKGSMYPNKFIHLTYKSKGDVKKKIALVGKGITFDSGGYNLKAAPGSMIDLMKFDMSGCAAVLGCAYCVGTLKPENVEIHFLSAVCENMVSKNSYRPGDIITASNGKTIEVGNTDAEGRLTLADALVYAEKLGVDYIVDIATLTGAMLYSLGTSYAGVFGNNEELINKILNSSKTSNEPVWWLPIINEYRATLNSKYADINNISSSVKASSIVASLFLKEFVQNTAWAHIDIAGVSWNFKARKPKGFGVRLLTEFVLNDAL
# procedureDetails: P. falciparum M17LAP inhibitors, primary screen, biochemical, fluorogenic H-Leu-NHMec substrate, 1536-well (AID 1619)
# Assay type: functional
Activity calls are given as the source filed them.
Would you kindly list IC50 for each of these compounds?

Consider the compound CC1CCc2sc(NC(=O)C3CC(Cl)=CCC3C(=O)O)c(C#N)c2C1 (configuration not stated) and give its measured IC50.
< 1 µM (active)

Input CCc1ccc(C(=O)CSc2nnc[nH]2)cc1
16.7 µM (active)

Input Cc1ccccc1Nc1nnc(SCC(=O)NC(=O)NCc2ccco2)s1
25.1 µM (active)

Input CCc1cc2cc(OC)ccc2nc1SCC(=O)Nc1cc(OC)c(OC)cc1C(=O)O
< 1 µM (active)

Input O=C(O)/C=C/C(=O)Nc1ccccc1C(=O)OCC(=O)c1ccc2c(c1)OCCO2
36.9 µM (active)

Input Cc1cc(C(=O)COC(=O)c2ccc[nH]c2=O)c(C)n1-c1ccc(Br)cc1
2.74 µM (active)

Input O=C(O)C1CC=CCC1C(=O)Nc1ccccc1Cl (configuration not stated)
12 µM (active)
